Examples of binders with documented koff follow.
measuredOn: T1, native human ApoC3 (human, UniProt P02656 21-99, biotinylated in the captured-antigen assays (Tables 6 and 8); sites not stated)
T1 construct: also called nhuApoC3; native huApoC3
procedureText: SPR, IgG captured via anti-human Fc, ApoC3 analyte 200 nM
Note: unit s⁻¹ is implicit; provide only the numeric part.

Look over these answered cases.
binder	valueUnits	numericValue
29G11 IgG (antibody, V domains shown) VH: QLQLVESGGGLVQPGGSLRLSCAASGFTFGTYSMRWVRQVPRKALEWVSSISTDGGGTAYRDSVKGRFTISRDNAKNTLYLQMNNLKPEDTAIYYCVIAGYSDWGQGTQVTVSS VL: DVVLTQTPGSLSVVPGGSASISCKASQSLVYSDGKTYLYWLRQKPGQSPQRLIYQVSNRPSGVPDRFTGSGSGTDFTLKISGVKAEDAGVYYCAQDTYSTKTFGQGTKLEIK	s⁻¹	0.00122
29A05 IgG (antibody, V domains shown) VH: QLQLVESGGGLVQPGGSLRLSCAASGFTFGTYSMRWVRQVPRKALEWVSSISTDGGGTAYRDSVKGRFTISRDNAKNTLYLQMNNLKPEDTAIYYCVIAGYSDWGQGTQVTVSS VL: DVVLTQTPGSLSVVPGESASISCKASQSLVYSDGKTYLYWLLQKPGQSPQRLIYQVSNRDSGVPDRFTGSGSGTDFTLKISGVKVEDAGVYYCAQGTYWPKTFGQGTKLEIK	s⁻¹	0.00133

Next item in the queue.
GET /values?readout=koff&item= 29B03 IgG (antibody, V domains shown) VH: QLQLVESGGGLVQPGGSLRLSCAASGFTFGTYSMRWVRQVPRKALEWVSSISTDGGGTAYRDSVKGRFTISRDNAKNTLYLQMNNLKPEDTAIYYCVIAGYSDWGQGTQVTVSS VL: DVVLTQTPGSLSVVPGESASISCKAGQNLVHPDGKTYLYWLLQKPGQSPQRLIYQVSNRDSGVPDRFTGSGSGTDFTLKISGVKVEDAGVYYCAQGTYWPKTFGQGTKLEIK
8.44e-05
